Test system: H1975 (non-small cell lung adenocarcinoma)
METHOD SUMMARY: MTT cancer cell growth inhibition
Assay type: cell-based
STUDY CONDITIONS: Homo sapiens, NCI-H1975, 72 h, MTT, 72 hours incubation, H1975 cells; read-out: GI50 H1975
QUANTITY MEASURED: GI50 (nM)

The examples below pair each entry with its known result.
                                item_smiles  readout_unit  number
0  C=C1NC(=O)c2ccc(F)c(n2)CNC(=O)C[C@@H](/C=C/CCSC(C)=O)OC(=O)[C@H](C)NC1=O            nM      29
1  C=C1NC(=O)c2nc(ccc2SC)CNC(=O)C[C@@H](/C=C/CCSC(C)=O)OC(=O)[C@H](C)NC1=O            nM      25
2  C/C=C1\NC(=O)c2nc(ccc2F)CNC(=O)C[C@@H](/C=C/CCSC(C)=O)OC(=O)[C@H](C(C)C)NC1=O            nM      27
3  C/C=C1\NC(=O)c2nc(ccc2SCC)CNC(=O)C[C@@H](/C=C/CCSC(=O)CCCCC)OC(=O)[C@H](C(C)C)NC1=O            nM      57

[a] C/C=C1\NC(=O)c2ccc(SC)c(n2)CNC(=O)C[C@@H](/C=C/CCSC(=O)CCCC)OC(=O)[C@H](C(C)C)NC1=O
[b] C/C=C1\NC(=O)c2nc(ccc2F)CNC(=O)C[C@@H](/C=C/CCS)OC(=O)[C@H](Cc2cccc3ccccc23)NC1=O
Incoming: Choose between a and b : whose measured GI50 value is numerically larger? Field: selected label. Fill in the label of the entry you choose.
Outgoing: a

Source of measurements: patent US10065990B2
